target: human recombinant glucocorticoid receptor (Homo sapiens); construct: This GR was a full-length steroid hormone receptor; host or cells: recombinant baculovirus-infected insect cells; assay: Glucocorticoid receptor binding displacement assay with 3H-dexamethasone; conditions: Ki
PROPERTY_MEASURED: Ki

Ki lookup needed for `Cn1c(=O)[nH]c(N2CCC(Oc3ccccc3)CC2)c(Cc2ccccc2)c1=O` , thanks. 10 to 100 nM

###

Biological target: human recombinant glucocorticoid receptor (Homo sapiens, UniProt P04150)
Construct: This GR was a full-length steroid hormone receptor; host or cells: recombinant baculovirus-infected insect cells
Sequence (P04150 1-777): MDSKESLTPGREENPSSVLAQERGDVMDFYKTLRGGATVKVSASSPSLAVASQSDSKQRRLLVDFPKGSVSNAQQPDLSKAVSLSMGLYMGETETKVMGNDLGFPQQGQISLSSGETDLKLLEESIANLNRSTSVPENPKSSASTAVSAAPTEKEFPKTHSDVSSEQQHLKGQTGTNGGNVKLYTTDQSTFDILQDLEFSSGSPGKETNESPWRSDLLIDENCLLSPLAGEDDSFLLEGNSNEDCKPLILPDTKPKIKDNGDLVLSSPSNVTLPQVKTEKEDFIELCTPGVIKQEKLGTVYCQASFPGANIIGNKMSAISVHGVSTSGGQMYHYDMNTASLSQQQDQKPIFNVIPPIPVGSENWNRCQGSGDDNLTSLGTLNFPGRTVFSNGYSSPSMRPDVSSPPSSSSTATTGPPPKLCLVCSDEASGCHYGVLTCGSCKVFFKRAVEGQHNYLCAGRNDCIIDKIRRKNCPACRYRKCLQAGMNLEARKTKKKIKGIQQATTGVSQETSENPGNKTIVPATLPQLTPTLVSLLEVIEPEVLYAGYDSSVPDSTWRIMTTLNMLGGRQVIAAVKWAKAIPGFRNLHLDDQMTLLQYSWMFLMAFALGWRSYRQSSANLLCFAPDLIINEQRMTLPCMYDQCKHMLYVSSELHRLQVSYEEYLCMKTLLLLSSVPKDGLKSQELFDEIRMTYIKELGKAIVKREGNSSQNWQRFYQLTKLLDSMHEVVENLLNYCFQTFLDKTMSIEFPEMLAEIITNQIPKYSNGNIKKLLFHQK
Assay: Glucocorticoid receptor binding displacement assay with 3H-dexamethasone
Conditions: displacement of 2.5 nM 3H-dexamethasone; IC50 converted to Ki by Cheng-Prusoff; read-out: Ki
PROPERTY_MEASURED: Ki

O=c1[nH]c(N2CCC(Cc3ccccc3)CC2)c(Cc2ccccc2)c(=O)[nH]1 [Compound 18] ... 10 to 100 nM

Would you mind telling me what Ki value was observed for O=c1[nH]c(N2CCC(c3ccccc3)CC2)c(Cc2cccc(Br)c2)c(=O)[nH]1 [Compound 38] ? 10 to 100 nM

Also check Cn1c(=O)[nH]c(N2CCC(Cc3ccccc3)CC2)c(Cc2ccc(Br)cc2)c1=O [Compound 7] 10 to 100 nM

Now this one: O=c1[nH]c(N2CCC(c3ccccc3)CC2)c(Cc2ccccc2)c(=O)[nH]1 [Compound 31] < 10 nM

###

Biological target: human recombinant glucocorticoid receptor (Homo sapiens, UniProt P04150)
Construct: This GR was a full-length steroid hormone receptor; host or cells: recombinant baculovirus-infected insect cells
Experiment: Glucocorticoid receptor binding displacement assay with 3H-dexamethasone
Conditions: displacement of 2.5 nM 3H-dexamethasone; IC50 converted to Ki by Cheng-Prusoff; read-out: Ki
Method: The source of the receptor was recombinant baculovirus-infected insect cells. This GR was a full-length steroid hormone receptor likely to be associated with heat-shock and other endogenous proteins. […] After 2.5 hrs incubation, unbound counts were removed with dextran coated charcoal (DCC) as follows: 25 μl of DCC solution (10% DCC in assay buffer) was added to all wells and mixed (total volume 225 μl). […] The plate was vigorously shaken for approx. 10 minutes and counted on Topcount. […]
pKi: −log10 of the molar value.
PROPERTY_MEASURED: pKi

Enter reported pKi observed with human recombinant glucocorticoid receptor (Homo sapiens, UniProt P04150) for Cn1c(=O)[nH]c(N2CCC(c3ccccc3)CC2)c(Cc2ccccc2Cl)c1=O [Compound 34] 7.00 to 8.00

Now the same for CCn1c(=O)[nH]c(N2CCC(c3ccccc3)CC2)c(Cc2cccc(Cl)c2)c1=O [Compound 30] < 7.00

What about Cn1c(=O)[nH]c(N2CCC(Cc3ccccc3)CC2)c(Cc2ccc(C#N)cc2)c1=O [Compound 9] ? < 7.00

Same lookup for Cn1c(=O)[nH]c(N2CCC(Cc3ccccc3)CC2)c(Cc2ccccc2-c2ccccc2)c1=O [Compound 14] , please. < 7.00

Then this molecule: O=c1[nH]c(N2CCC(c3ccccc3)CC2)c(Cc2ccc(Cl)cc2)c(=O)[nH]1 [Compound 36] 7.00 to 8.00

Entry to check: COc1ccccc1C1CCN(c2[nH]c(=O)[nH]c(=O)c2Cc2ccccc2)CC1 [Compound 41] > 8.00

Same question for CCOC(=O)N1CCN(c2[nH]c(=O)n(C)c(=O)c2Cc2cccc(C(F)(F)F)c2)CC1 [Compound 2] please. < 7.00

Try the molecule Cc1ccc(Cc2c(N3CCC(Cc4ccccc4)CC3)[nH]c(=O)n(C)c2=O)cc1 [Compound 10] 7.00 to 8.00

###

biological target: human recombinant glucocorticoid receptor (Homo sapiens, UniProt P04150); construct: This GR was a full-length steroid hormone receptor; host or cells: recombinant baculovirus-infected insect cells; assay: Glucocorticoid receptor binding displacement assay with 3H-dexamethasone; details: displacement of 2.5 nM 3H-dexamethasone; IC50 converted to Ki by Cheng-Prusoff; read-out: Ki
PROPERTY_MEASURED: Ki

Consider the reported Ki for these compounds:
Cn1c(=O)[nH]c(N2CCN(C(c3ccccc3)c3ccccc3)CC2)c(Cc2ccccc2)c1=O ... > 100 nM
Cn1c(=O)[nH]c(N2CCC(Cc3ccccc3)CC2)c(Cc2ccc(F)cc2F)c1=O ... 10 to 100 nM
Cn1c(=O)[nH]c(N2CCC(O)CC2)c(Cc2cccc(C(F)(F)F)c2)c1=O ... > 100 nM
Cn1c(=O)[nH]c(N2CCC(Cc3ccccc3)CC2)c(Cc2ccc(F)cc2Cl)c1=O ... > 100 nM
CCn1c(=O)[nH]c(N2CCC(Cc3ccccc3)CC2)c(Cc2cccc(Cl)c2)c1=O ... > 100 nM
Cn1c(=O)[nH]c(N2CCC(O)(Cc3ccccc3)CC2)c(Cc2ccccc2)c1=O ... > 100 nM
O=c1[nH]c(N2CCC(Cc3ccccc3)CC2)c(Cc2cccc(Cl)c2)c(=O)n1Cc1ccccc1 ... 10 to 100 nM
COc1ccc(C2CCN(c3[nH]c(=O)[nH]c(=O)c3Cc3ccccc3)CC2)cc1 ... 10 to 100 nM
Cn1c(=O)[nH]c(N2CCC(c3ccccc3)CC2)c(Cc2ccccc2)c1=O ... 10 to 100 nM
N#Cc1cccc(Cc2c(N3CCC(c4ccccc4)CC3)[nH]c(=O)[nH]c2=O)c1 ... 10 to 100 nM

// query Ki value for entry `O=c1[nH]c(N2CCC(c3c[nH]c4ccccc34)CC2)c(Cc2ccccc2)c(=O)[nH]1` 10 to 100 nM

Another compound: `O=c1[nH]c(N2CCC(c3ccccc3)CC2)c(Cc2ccccc2Cl)c(=O)[nH]1` < 10 nM

Also need `O=c1[nH]c(N2CCN(Cc3ccccc3)CC2)c(Cc2ccccc2)c(=O)[nH]1` , thanks. > 100 nM

Next compound: Cn1c(=O)[nH]c(N2CCC(Cc3ccccc3)CC2)c(Cc2ccccc2Br)c1=O [Compound 3] > 100 nM

Here is the next compound: `O=c1[nH]c(N2CCC(c3ccccc3)CC2)c(Cc2cccc(Cl)c2)c(=O)n1Cc1ccccc1` > 100 nM

Okay, and Cn1c(=O)[nH]c(N2CCC(Cc3ccccc3)CC2)c(Cc2ccccc2Br)c1=O [Compound 4] ? 10 to 100 nM

Thanks! And `CC(=O)Nc1ccc(C2CCN(c3[nH]c(=O)[nH]c(=O)c3Cc3ccccc3)CC2)cc1` ? 10 to 100 nM

###

Entries annotated with measured Ki
molecular target: human recombinant glucocorticoid receptor (Homo sapiens); construct: This GR was a full-length steroid hormone receptor; host or cells: recombinant baculovirus-infected insect cells; assay: Glucocorticoid receptor binding displacement assay with 3H-dexamethasone; details: displacement of 2.5 nM 3H-dexamethasone; IC50 converted to Ki by Cheng-Prusoff; read-out: Ki

Some entries whose results are on file:
Cn1c(=O)[nH]c(N2CCC(c3ccccc3)CC2)c(CCc2ccccc2)c1=O ... > 100 nM
Cn1c(=O)[nH]c(N2CCC(Cc3ccccc3)CC2)c(Cc2ccccc2)c1=O ... 10 to 100 nM
CC(C)Cn1c(=O)[nH]c(N2CCC(Cc3ccccc3)CC2)c(Cc2cccc(Cl)c2)c1=O ... > 100 nM
Cn1c(=O)[nH]c(N2CCN(Cc3ccccc3)CC2)c(Cc2ccccc2)c1=O ... > 100 nM

Sample `Cn1c(=O)[nH]c(N2CCC(Cc3ccccc3)CC2)c(Cc2ccc(C(C)(C)C)cc2)c1=O` — what was its Ki? > 100 nM
